B1: HEEH_KT_rd6_0007 (parent)
chain: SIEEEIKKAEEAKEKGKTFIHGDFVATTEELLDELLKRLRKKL

Variants of: B1
method.description: folding stability dG (cDNA display proteolysis); higher = more stable
experimental.parameters: PBS, room temperature
observable: folding stability dG

E3H = 1.12 kcal/mol

Q: Endpoint output: folding stability dG of G16T . Value?
Ans: 0.757 kcal/mol

Q: // query: K7F
Ans: 0.95 kcal/mol

Q: // query: V25I
Ans: 1.41 kcal/mol

Q: // query: L32M
Ans: 0.752 kcal/mol

Q: // query: S1L
Ans: 1.23 kcal/mol
